In this section we review reported koff values for a set of binders.
- TESTED_TARGET: T1, human SIRPβ isoform 1 (human, UniProt O00241 30-148)
- T1 construct: also called SIRPb; sirpb1
- T1 sequence (O00241 30-148 limits assumed): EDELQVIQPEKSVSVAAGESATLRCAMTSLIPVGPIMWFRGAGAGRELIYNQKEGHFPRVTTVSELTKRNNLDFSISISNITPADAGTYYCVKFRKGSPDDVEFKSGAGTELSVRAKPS
- METHOD_DESCRIPTION: SPR, Langmuir fit
Response body: numeric value in s⁻¹, unit text excluded.

Consider the following illustrative entries.
BINDER	koff [s⁻¹]
S3 (scFv, V domains shown, also called clone 3; scFv-Fc form of AB3) VH: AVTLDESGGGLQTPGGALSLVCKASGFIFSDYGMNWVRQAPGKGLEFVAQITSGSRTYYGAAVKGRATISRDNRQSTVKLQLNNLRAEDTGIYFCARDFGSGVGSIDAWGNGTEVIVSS VL: ALTQPASVSANLGGTVKITCSGSRGRYGWYQQRSPGSAPVTVIYRDNQRPSNIPSRFSSSTSGSTSTLTITGVQADDESVYFCGSYDGSIDIFGAGTTLTVL	0.00192
S163 (scFv, V domains shown) VH: DVQLVESGGGLVRPGESLRLSCAASGFTFTNYAVTWVRQAPGEGLEWVSLISVTGTTYYADSVKGRFTISRDNSKSTLYLQMNGLRAEDTAVYYCAKVTWKNVFDYWGLGTLVTVSS VL: EIVLTQSPGTLSVSPGERATFSCRASQTVGSKLAWYQQKPGQAPRLLIYDANTRATGIPARFSGSGSGTEFTLTISSLQSEDFAVYYCQQHTDWPPYTFGGGTKVEIK	0.0017
S73 (scFv, V domains shown, also called clone 73) VH: DVQLVESGGGVVRPGESLRLSCEASGFTFSSNAMSWARQAPGKGLEWVAGISSGSDTYYGDSVKGRLTISRDNSKNILYLQMNSLTAEDTAVYYCARETWNHLFDYWGLGTLVTVSS VL: ALTQPASVSANPGETVKITCSGGIYSSYYYAWYQQKSPGSAPVTLIYSDDKRPSNIPSRFSGSASGSTATLTITGVRAEDEAVYFCGGYDQSSYTNPFGAGTTLTVL	0.000108
S23 (scFv, V domains shown, also called clone 23) VH: DVQLVESGGGVVRPGESLRLSCAASGFTFSSHAMSWVRQAPGKGLEWLAGISAGGSDTYYIDSVKGRFTISRDNSKSSLYLRMNSLTAEDTAVYYCARETWNHLFDYWGLGTLVTVSS VL: ALTQPASVSANPGETVKITCSGGDYYSTYYAWYQQKSPGSAPVTVIHSDDERPSDIPSRFSGSASGSAATLIITGVRVEDEAVYFCGGYDGRTYINTFGAGTTLTVL	0.000114
S27 (scFv, V domains shown, also called clone 27; scFv-Fc form of AB27) VH: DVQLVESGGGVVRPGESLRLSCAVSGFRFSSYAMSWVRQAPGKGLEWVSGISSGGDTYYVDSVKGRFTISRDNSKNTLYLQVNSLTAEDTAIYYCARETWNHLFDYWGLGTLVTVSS VL: ALTQPASVSADLGETVKITCSGGDSSSHYYGWYQQKSPGSAPVTVIYSDDERPSDIPSRFSGSASGSTATLTITGVRVEDEAIYYCGAYDGSTYANTFGAGTTLTVL	8.97e-05

Next:
Query string: What does the record list as koff for S60 (scFv, V domains shown, also called clone 60) VH: DVQLVDSGGGVVRPGESLRLSCAASGFTFSSYAMSWVRQAPGKGLEWLAGISAGGSDTYYIDSVKGRFTISRDNSKNSLYLQMNSLTAEDTAVYYCARETWNHLFDYWGLGTLVTVSS VL: ALTQPASVSANPGETVKITCSGGDYYSTYYGWYQQKSPGSAPVTVIHSDDKRPSDIPSRFSGSASGSAATLTITGVRVEDEAVYFCGAYDGRTYINTFGAGTTLTVL ?
Result string: 0.000153
